B1: VH:VL chains; a variant is named by its letters at X, in order (parent)
chain 1: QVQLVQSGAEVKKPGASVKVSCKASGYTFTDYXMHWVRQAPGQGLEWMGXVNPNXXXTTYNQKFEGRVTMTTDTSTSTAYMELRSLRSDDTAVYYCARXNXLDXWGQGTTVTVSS
chain 2: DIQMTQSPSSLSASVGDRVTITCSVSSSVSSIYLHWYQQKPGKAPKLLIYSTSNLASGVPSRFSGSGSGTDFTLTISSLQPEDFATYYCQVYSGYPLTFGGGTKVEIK

Variants of: B1
Method: yeast display scFab, FACS + sequencing
Measurement Type: non-specific binding call

# count of solved cases: 5
alteration=YRRKDALA test_value=binds
alteration=YKGKGDGD test_value=binds
alteration=VAEGGYAV test_value=binds
alteration=DAGGGSSS test_value="no binding"
alteration=FKARDSSA test_value=binds

Item under review: YRRGDSLY . Reported non-specific binding call?
binds

Query: non-specific binding call; subject: YRRGGAAS
binds

Need non-specific binding call, item VRTEDSGD
no binding

Looking for the measured non-specific binding call of YRAGSSWD , can you help?
binds

Which non-specific binding call value belongs to DKTGNDVA ?
no binding

Look at this variant and give its reported non-specific binding call. AATTDAGD
no binding

What measured non-specific binding call goes with FARGGYVA ?
binds

Entry under review: VAEATDLY . Reported non-specific binding call?
no binding

non-specific binding call for YRGGGFAD ?
binds

Query (variant): DTTRADVD ; field requested: non-specific binding call
no binding

Any idea what non-specific binding call was measured for YRRRGYVA ?
binds

Bench note: what non-specific binding call did YERTTDLS show?
binds

What non-specific binding call value was documented for this variant, VKGAGDLA ?
no binding

Can you look up the measured non-specific binding call of FKGKGSWD for me?
binds

Need non-specific binding call, item YAKADYSS
binds

Query: non-specific binding call; subject: FRGRGFLS
binds

Query (variant): YAEESSAD ; field requested: non-specific binding call
no binding

Return reported non-specific binding call; argument: VAKADALD
no binding

Consider the variant shown here: FAGRGSSD What is its recorded non-specific binding call?
binds

I'd like to know its non-specific binding call. The variant in question is FKGRGSAD
binds

Which non-specific binding call is listed for FKGGGAVY ?
binds

Which non-specific binding call is listed for YRARSSVA ?
binds

Name the recorded non-specific binding call for YRRGGSVS .
binds

Entry FKGEGAAD has what non-specific binding call?
no binding

Which non-specific binding call reading was recorded for the variant YRERAAGY ?
binds

Requested field: non-specific binding call. Item: VTKTGAAA
no binding

Taken from the emibetuzumab library of Makowski et al. (2022).
